meta.source: PubChem BioAssay AID720541

- tgt: C-terminal-binding protein 1 (Homo sapiens) (UniProt Q13363)
- assayInfo: qHTS for Inhibitors of the Phosphatase Activity of Eya2: Carboxyl-terminal binding protein (CtBP) Counterscreen for Cherry-picked Compounds; also: nearly all actives have a fitted effect of over 65% in size
- conditions: purified protein-protein binding, AlphaScreen, 3 h; series mostly up to 46.1 µM
The campaign covered roughly 1,300 compounds. About 420 (32%) were called active. About 32% were inconclusive and are not listed. Calls follow the shape of the dose curve; as a rule, active = well fitted inhibition curve with a large enough effect; inconclusive = small, poorly fitted or top-dose-only effect; inactive = no such curve, though single readings can be large or run the other way. Some of the results follow.
Answer with one of the outcomes active, inactive

Here's what some known entries look like.
compound	assignedClass
COc1ccc(C(=O)C2CCCN(C(=O)c3cccc(N(C)C)c3)C2)cc1OC (centres undefined)	inactive
CCN(Cc1cccc(S(=O)(=O)O)c1)c1ccc(C(=C2C=CC(=[N+](CC)Cc3cccc(S(=O)(=O)O)c3)C=C2)c2ccccc2S(=O)(=O)[O-])cc1	active
N#Cc1ccc(CSc2nnc(-c3c[nH]c4ccccc34)n2-c2ccccc2)cc1	inactive
Cc1ccc(OCC(=O)Nc2ccccc2N2CCCC2)c(C)c1	inactive
CCOc1ccc2c(c1)C(c1ccc(C)cc1)=NNC(c1ccc(OC)cc1)=N2	inactive

q: Give the logged outcome of this assay for the following compound: `Cc1ccc(NC(=O)COc2ccc(S(=O)(=O)N3CCOCC3)cc2)cc1`
a: inactive

q: Give the logged outcome of this assay for the following compound: `CN(C)c1ccc2nc3ccc(=[N+](C)C)cc-3sc2c1`
a: inactive

---

- tgt: C-terminal-binding protein 1 (Homo sapiens) (UniProt Q13363)
- assayInfo: qHTS for Inhibitors of the Phosphatase Activity of Eya2: Carboxyl-terminal binding protein (CtBP) Counterscreen for Cherry-picked Compounds; also: nearly all actives have a fitted effect of over 65% in size
- conditions: purified protein-protein binding, AlphaScreen, 3 h; series mostly up to 46.1 µM
Screen size: about 1,300 compounds; about 420 (32%) were called active. Another 32% or so got no clear call; they are omitted. Calls come from the whole dose curve; as a rule, active = well fitted inhibition curve with a large enough effect; inconclusive = small, poorly fitted or top-dose-only effect; inactive = no such curve, though single readings can be large or run the other way. Some of the results follow.
Answer with one of the outcomes yes = active, no = inactive

Here's what some known entries look like.
compound	assignedClass
O=C(Nc1ccc(Nc2ccccc2)cc1)c1ccc(Cl)cc1[N+](=O)[O-]	no
COc1ccc(-c2cn3c(C)c(C(=O)NCc4ccc5c(c4)OCO5)sc3n2)cc1	no
CCOc1ccccc1C(=O)OCC(=O)Nc1nnc(-c2ccccc2)o1	yes
O=C(Nc1ccc2nc(-c3ccco3)c(-c3ccco3)nc2c1)N1CCCC1	yes
O=C(NCCC1=CCCCC1)c1[nH]c(C(F)(F)F)nc1-c1ccccc1	no

Read the next record carefully.
q: Give the logged outcome of this assay for the following compound: `O=C(COC(=O)c1cc(-c2cccnc2)nc2ccccc12)Nc1ccc(F)cc1F`
a: no

---

- tgt: C-terminal-binding protein 1 (Homo sapiens) (UniProt Q13363)
- assayInfo: qHTS for Inhibitors of the Phosphatase Activity of Eya2: Carboxyl-terminal binding protein (CtBP) Counterscreen for Cherry-picked Compounds; also: nearly all actives have a fitted effect of over 65% in size
- conditions: purified protein-protein binding, AlphaScreen, 3 h; series mostly up to 46.1 µM
In all, about 1,300 compounds went through this assay and about 420 (32%) were called active. Not shown: some 32% with an inconclusive outcome. Calls come from the whole dose curve; as a rule, active = well fitted inhibition curve with a large enough effect; inconclusive = small, poorly fitted or top-dose-only effect; inactive = no such curve, though single readings can be large or run the other way. This is one part of the list.
Answer with one of the outcomes class 1 (active), class 0 (inactive)

q: Give the logged outcome of this assay for the following molecule: `Cc1cc(Br)c(NC(=O)c2ccccc2[N+](=O)[O-])cc1C`
a: class 0

---

- tgt: C-terminal-binding protein 1 (Homo sapiens)
- assayInfo: qHTS for Inhibitors of the Phosphatase Activity of Eya2: Carboxyl-terminal binding protein (CtBP) Counterscreen for Cherry-picked Compounds; also: nearly all actives have a fitted effect of over 65% in size
- conditions: purified protein-protein binding, AlphaScreen, 3 h; series mostly up to 46.1 µM
About 420 (32%) of roughly 1,300 compounds were called active. Not shown: some 32% with an inconclusive outcome. The call rests on the fitted dose curve; in most records, active means well fitted inhibition curve with a large enough effect; inconclusive means small, poorly fitted or top-dose-only effect; inactive means no such curve, though single readings can be large or run the other way. This is one part of the list.
Answer with one of the outcomes Yes = active, No = inactive

compound	assignedClass
COc1cc(OC)c(OC)cc1/C=C1\CC(C)C/C(=C\c2cc(OC)c(OC)cc2OC)C1=O (stereo not drawn)	No
COc1cccc(C=NCC(C)N=Cc2cccc(OC)c2O)c1O (stereo not drawn)	Yes
COc1ccc(-c2nc(N)ncc2-c2csc(C)n2)c(O)c1	No
Cc1[nH]n(-c2cccc3ccccc23)c(=O)c1C=Nc1ccc2[nH]c(=O)[nH]c2c1	Yes
O=C(Oc1cncc(Cl)c1)c1sccc1Cl	No

q: Give the logged outcome of this assay for the following compound: `COc1ccc(-c2ccc(SCc3cccnc3)nn2)cc1OC`
a: Yes

q: Give the logged outcome of this assay for the following compound: COc1cc(C(C(=O)NC2CCCCC2)N(C(=O)Cc2c[nH]c3ccccc23)c2ccc(C)cc2)cc(OC)c1OC (stereo not drawn)
a: No

q: Give the logged outcome of this assay for the following compound: O=C(Nc1nc(-c2ccccn2)cs1)C1CC(=O)N(c2ccc3c(c2)OCCO3)C1 (stereo not drawn)
a: Yes
